Reference source: PubChem BioAssay (NCI)

test system: SK-MEL-5 melanoma; assay: NCI-60 one-dose screen, 48 h (100 = growth as untreated, 0 = no growth, -100 = all killed); conditions: 10 µM unless noted
About 83,000 compounds went through this panel and 20% of them were active in at least one assay; those are over-represented in the sample as a whole. Activity calls are given as the source filed them. The calls were made as follows: active = growth percent below 10; inactive = the rest.
Measured growth of individual entries
MEASURED METRIC: growth

{"COMPOUND": "Cc1cc2cn3c4ccc(O)cc4nc(N)c3c2cc1C", "ASSAY RESULT": "-62.4% (active)"}
{"COMPOUND": "CC(C)C(=O)c1ccc(Cl)s1", "ASSAY RESULT": "92.8% (inactive)"}
{"COMPOUND": "CCn1cnc(C[C@H](NC(=O)[C@@H](NC(=O)Nc2cc(C(F)(F)F)cc(C(F)(F)F)c2)C(C)C)C(=O)OC)c1", "ASSAY RESULT": "-98% [100 µM] (active)"}
{"COMPOUND": "COc1cc2ncnc(Nc3ccc4c(cnn4C(=O)Nc4ccccc4)c3)c2cc1OC", "ASSAY RESULT": "90.9% (inactive)"}
{"COMPOUND": "COc1ccc(CN2C(=O)/C(=C\\C(=O)c3ccc(OCCN4CCCC4)cc3)c3ccccc32)cc1", "ASSAY RESULT": "92.7% (inactive)"}
{"COMPOUND": "COc1cc2ncnc(-n3ncc4cc(NC(=O)Nc5ccc(Cl)c(Cl)c5)ccc43)c2cc1OC", "ASSAY RESULT": "-82.8% (active)"}
{"COMPOUND": "Cc1nc(NC(=O)NC2CCCCC2)sc1C(=O)NN", "ASSAY RESULT": "106% (inactive)"}
{"COMPOUND": "N#CCCCCCCCCCCC#N", "ASSAY RESULT": "110% (inactive)"}
{"COMPOUND": "COc1ccc2cn3c4ccc(O)cc4[nH]c(=O)c3c2c1", "ASSAY RESULT": "10.9% (inactive)"}
{"COMPOUND": "C=CCN(C)C", "ASSAY RESULT": "108% (inactive)"}
{"COMPOUND": "CCOP1(=O)CC(C)=C(Cl)C(P(=O)(O)O)C1 (configuration not stated)", "ASSAY RESULT": "109% (inactive)"}
{"COMPOUND": "CC(=O)Oc1cc2ccccc2cc1C(C)C", "ASSAY RESULT": "101% (inactive)"}
{"COMPOUND": "O=C1C(=O)c2ccccc2C(O)=C1CCCc1ccc(Oc2ccccc2)cc1", "ASSAY RESULT": "55.1% (inactive)"}
{"COMPOUND": "O=c1[nH]c(=S)[nH]c(O)c1/C=C1\\C=Nc2ccccc21", "ASSAY RESULT": "75.8% (inactive)"}
{"COMPOUND": "CCOC(=O)NNc1[nH]c(-c2ccc(OC)cc2)cc1C#N", "ASSAY RESULT": "88.9% (inactive)"}
{"COMPOUND": "COc1ccc(/C=C2\\SC(=O)N(Cc3cc(=O)oc4ccc(OC)cc34)C2=O)cc1", "ASSAY RESULT": "87.4% (inactive)"}
{"COMPOUND": "CC(C)OCC1CO1 (configuration not stated)", "ASSAY RESULT": "108% (inactive)"}
{"COMPOUND": "Nc1ncn([C@@H]2O[C@H](CO)[C@@H](O)C2(F)F)c(=O)n1", "ASSAY RESULT": "70.8% (inactive)"}
{"COMPOUND": "CCCC(=O)NNc1[nH]c(-c2cc(OC)c(OC)c(OC)c2)cc1C(=O)OCC", "ASSAY RESULT": "112% (inactive)"}
{"COMPOUND": "CCCC(C)c1cc(Cc2cc(Cl)cc(Cl)c2O)c(O)c(Cc2cc(Cl)cc(Cl)c2O)c1 (configuration not stated)", "ASSAY RESULT": "-58.5% (active)"}
{"COMPOUND": "COc1ccc(-c2cn3ccnc3c(-c3ccc4ncn(C5CCCCC5)c4c3)n2)cc1", "ASSAY RESULT": "7.7% (active)"}
{"COMPOUND": "CCOC(=O)c1csc(-c2ccc(COC(=O)c3ccccc3)o2)n1", "ASSAY RESULT": "98.2% (inactive)"}
{"COMPOUND": "N#Cc1ccc(OCc2nc(N)nc(N)c2-c2ccc(Cl)c(Cl)c2)cc1", "ASSAY RESULT": "23.4% (inactive)"}
{"COMPOUND": "COC1=C(OC)C(=O)c2ccccc2C1=O", "ASSAY RESULT": "13.6% (inactive)"}
{"COMPOUND": "COc1cc(NC(C)CCCN)c2nc(C)ccc2c1OC (configuration not stated)", "ASSAY RESULT": "101% (inactive)"}
{"COMPOUND": "N/C(=N\\O)c1ccncc1", "ASSAY RESULT": "113% (inactive)"}
{"COMPOUND": "N#Cc1c2ncccc2c2nnc3cc(Cl)c(Cl)cc3n12", "ASSAY RESULT": "92.4% (inactive)"}
{"COMPOUND": "CN1CCN(Cc2ccc(NC(=O)c3ccc(C#Cc4c(N)ncc5ccc(F)cc45)cc3)cc2C(F)(F)F)CC1", "ASSAY RESULT": "-91.2% (active)"}
{"COMPOUND": "CCCCCSc1ccc2nc(NC(=O)OCC)sc2c1", "ASSAY RESULT": "5.59% (active)"}
{"COMPOUND": "COc1ccc(Nc2c3ccccc3nc3ccccc23)cc1", "ASSAY RESULT": "24.8% (inactive)"}
{"COMPOUND": "COc1ccc(-c2cc(C#N)c(NNC(C)=O)[nH]2)cc1", "ASSAY RESULT": "105% (inactive)"}
{"COMPOUND": "O=C(/C=C/c1ccc(Cl)cc1)c1ccc(Cl)cc1", "ASSAY RESULT": "97.3% (inactive)"}
{"COMPOUND": "O=C(/C=C1\\C(=O)N(Cc2ccc([N+](=O)[O-])cc2)c2ccccc21)c1ccc(OCCN2CCCC2)cc1", "ASSAY RESULT": "88.5% (inactive)"}
{"COMPOUND": "COc1ccc2oc(=O)cc(CN3C(=O)S/C(=C\\c4ccc(Cl)cc4)C3=O)c2c1", "ASSAY RESULT": "101% (inactive)"}
{"COMPOUND": "Cn1c2ccccc2c2ccccc21", "ASSAY RESULT": "105% (inactive)"}
{"COMPOUND": "COC(=O)c1ccc2[nH]c(O)c(C(=Nc3ccc(N(C)C(=O)CN4CCN(C)CC4)cc3)c3ccc(OC)cc3)c2c1", "ASSAY RESULT": "28.5% (inactive)"}
{"COMPOUND": "CC[N+](C)(C)N", "ASSAY RESULT": "95.4% (inactive)"}

---

tested on: EKVX NSCLC; assay: NCI-60 one-dose screen, 48 h (100 = growth as untreated, 0 = no growth, -100 = all killed); details: 10 µM
The panel holds about 83,000 compounds, 20% with a hit somewhere; the sample as a whole holds those more often.
MEASURED METRIC: growth (%)

{"ITEM SMILES": "COc1ccc2c(c1)cn1c3ccc(O)cc3[nH]c(=O)c21", "ASSAY RESULT": 47.9}
{"ITEM SMILES": "CCOC(=O)c1cc(C(=O)c2ccc(Br)cc2)n2cc(C)cc(C)c12", "ASSAY RESULT": 99.5}
{"ITEM SMILES": "O=C(Nc1ccc(-n2cc(-c3ccncc3)c(-c3ccc(Cl)c(O)c3)n2)cc1)c1ccc(Cl)c(C(F)(F)F)c1", "ASSAY RESULT": 35.2}

---

List of growth values.
system: NCI-H322M lung; experiment: NCI-60 one-dose screen, 48 h (100 = growth as untreated, 0 = no growth, -100 = all killed); conditions: 10 µM unless noted
This is part of a sample that, as a whole, favours compounds with a hit. Of some 83,000 tested, about 20% had one in any assay. The source made the active and inactive calls. Rule for the calls: active = growth percent below 10; inactive = the rest.
MEASURED METRIC: growth

{"ITEM SMILES": "O=C(Nc1ccc(-n2cc(-c3ccncc3)c(-c3ccc(Cl)c(O)c3)n2)cc1)c1cc(C(F)(F)F)cc(C(F)(F)F)c1", "ASSAY RESULT": "116% (inactive)"}
{"ITEM SMILES": "C/C(CCC(=O)O)=N/Nc1ccc([N+](=O)[O-])cc1", "ASSAY RESULT": "93.5% (inactive)"}
{"ITEM SMILES": "CCOc1ccc(N(C)c2ccc(/C=C/C3=[N+](C)c4ccccc4C3(C)C)cc2)cc1", "ASSAY RESULT": "57% (inactive)"}
{"ITEM SMILES": "O=C(CCl)NC1c2ccccc2Oc2ccccc21", "ASSAY RESULT": "97.9% (inactive)"}
{"ITEM SMILES": "CC(=O)N1CCN(CCNC(=O)n2cc(-c3ccncc3)c(-c3cc(O)cc(Cl)c3)n2)CC1", "ASSAY RESULT": "106% (inactive)"}
{"ITEM SMILES": "Cc1ccc(C(=O)Nc2ccc(CN3CCN(C)CC3)c(C(F)(F)F)c2)cc1C#Cc1cnc(N)c2ccc(C#N)cc12", "ASSAY RESULT": "73.8% (inactive)"}
{"ITEM SMILES": "O=C(/C=C1\\C(=O)N(Cc2ccc([N+](=O)[O-])cc2)c2ccccc21)c1ccc(OCCN2CCCC2)cc1", "ASSAY RESULT": "66.2% (inactive)"}
